# Test system: NCI-H226
# test summary: NCI tumour cell line growth inhibition, 48 h
The source made the active and inactive calls. No stated cut-off is given here; in the data, active = GI50 up to about 1.1 µM and inactive = higher.
measurement label: GI50

# count of solved cases: 3
CSCCCS/C1=C/CCCCCCCCCC1: > 100 µM (inactive)
CC1(C)CC(=O)C(=CNc2nc(-c3cccc([N+](=O)[O-])c3)cs2)C(=O)C1: 15.3 µM (inactive)
O=[N+]([O-])c1ccc2nc(Nc3ccccc3)c(Nc3ccccc3)nc2c1: 2.4 µM (inactive)

Which GI50 value is on record for CC(=O)Nc1ccc(C(=O)NN2C(=O)C(Cl)C2c2ccc(O)cc2)cc1 (stereo not given) ?
> 100 µM (inactive)

Request: "Nc1ncc(CN2CCCC2)c(-c2ccccc2O)n1"
> 750 µM (inactive)

Follow-up entry: COc1ccc(C(O)c2ccc3c(c2)OCO3)cc1 (stereo not given)
> 100 µM (inactive)

Then this compound: Cc1cc(Cl)ccc1NC1=NC(=O)C(CC(=O)Nc2cccc(Cl)c2)S1 (stereo not given)
> 100 µM (inactive)

Then what about the compound "COc1ccc2[nH]c3c(O)c(-c4c(C)cc5c([nH]c6ccc(OC)cc65)c4O)c(C)cc3c2c1" ?
4.38 µM (inactive)

Note, next up: "Cc1c(N=C(S)Nc2ccc(Cl)cc2)c(=O)n(-c2ccccc2)n1C"
> 100 µM (inactive)

// query: "C=C1CC[C@@]2(C)[C@@H]([C@@H]1C)[C@H]1CC[C@@H]3[C@@]4(C)CC[C@H](O)C(C)(C)[C@@H]4CC[C@@]3(C)[C@]1(C)C[C@@H]2O"
5 µM (inactive)

Moving on to the next compound: "O=c1ccn2n1CCCCC2"
> 100 µM (inactive)

CC(=O)N1c2ccccc2C(C)C1c1[nH]c2ccccc2c1C (stereo not given) ?
25.3 µM (inactive)

How about "Cc1nc(-c2cccnc2)sc1C(=O)CC(=O)C(=O)Nc1cccc(NC(=O)C(=O)CC(=O)c2sc(-c3cccnc3)nc2C)n1" ?
> 100 µM (inactive)

// same read-out, input: CC1OC2=N[C@@H]1C(=O)N[C@@H](Cc1ccccc1)C1=N[C@H](C(=O)N[C@@H](Cc3ccccc3)C3=N[C@H](C(=O)N[C@H]2Cc2ccccc2)C(C)O3)C(C)O1 (stereo not given in full)
29.6 µM (inactive)

Item: "Nc1c(O)c(C(=O)O)cc2ccccc12"
30.1 µM (inactive)

Repeat for the following compound: COc1ccc(C2C(C)C(=O)C(C)C(c3ccc(OC)cc3)N2N=O)cc1 (stereo not given)
207 µM (inactive)

Same question, CC1[C@@H](OCc2ccccc2)COC(=O)N1Cc1ccccc1 (stereo not given in full) this time
> 100 µM (inactive)

Another compound: COc1ccc(/N=N/C(=O)NC(Cc2ccccc2)C(=O)O)cc1 (stereo not given)
> 100 µM (inactive)

One more compound: CC(=O)Nc1cc2nc3n(c2cc1C)CCC3OC(C)=O (stereo not given)
> 100 µM (inactive)

Then this compound: C=C1C(=O)OC2/C=C(\CO)C3OC3C3OC3(C)CC(OC(=O)/C(=C/C)COC(C)=O)C12 (stereo not given)
21.6 µM (inactive)
